- Assayed target: Sodium channel protein type 1 subunit alpha (Homo sapiens) (UniProt P35498)
- Experimental protocol: Activation of human Nav1.1 expressed in HEK293 cells assessed as ratio of compound activation AUC to baseline activation AUC at 3.3 uM at -120 mV holding potential by Qpatch assay
- Assay type: cell-based
Positions of bridges follow the written chain, without caps; N, C: chain ends. Residues, ends and D or L forms follow the SMILES beside them.
Recorded Ratio AUC for the following compounds
Reply: number alone, nothing else.

Reference set, count: 2
CC[C@H](C)[C@H](NC(=O)[C@H](CCCCN)NC(=O)[C@@H](NC(=O)[C@@H](N)CCCNC(=N)N)[C@@H](C)CC)C(=O)N[C@H](C)C(=O)N[C@@H](CC(C)C)C(=O)N[C@@H](Cc1ccccc1)C(=O)N[C@@H](CC(=O)O)C(=O)N[C@@H](CCC(N)=O)C(=O)N[C@@H](CC(C)C)C(=O)N[C@@H](CO)C(=O)N[C@@H](CCCNC(=N)N)C(=O)N[C@@H](CC(C)C)C(N)=O ... 1.1
CC[C@H](C)[C@@H]1NC(=O)[C@@H](NC(=O)[C@@H](NC(=O)[C@@H](N)CCCNC(=N)N)[C@@H](C)CC)CSSC[C@@H](C(=O)N[C@@H](CCC(N)=O)C(=O)N[C@@H](CC(C)C)C(=O)N[C@@H](CO)C(=O)N[C@@H](CCCNC(=N)N)C(=O)N[C@@H](CC(C)C)C(N)=O)NC(=O)[C@H](Cc2ccccc2)NC(=O)[C@H](CC(C)C)NC(=O)CNC1=O (H-RICIGLFCQLSRL-NH2; disulfide 3-8) ... 1

Let us examine a further case.
Q: Ratio AUC lookup needed for CC[C@H](C)[C@H](NC(=O)[C@H](CCCCN)NC(=O)[C@@H](NC(=O)[C@@H](N)CCCNC(=N)N)[C@@H](C)CC)C(=O)NCC(=O)N[C@@H](CC(C)C)C(=O)N[C@@H](Cc1c[nH]c2ccccc12)C(=O)N[C@@H](CC(=O)O)C(=O)N[C@@H](CCC(N)=O)C(=O)N[C@@H](CC(C)C)C(=O)N[C@@H](CO)C(=O)N[C@@H](CCCNC(=N)N)C(=O)N[C@@H](CC(C)C)C(N)=O (H-RIKIGLWDQLSRL-NH2) , thanks.
A: 1

* * *

- Assayed target: Sodium channel protein type 1 subunit alpha (Homo sapiens)
- Experimental protocol: Activation of human Nav1.1 expressed in HEK293 cells assessed as ratio of compound activation AUC to baseline activation AUC at 1.11 uM at -120 mV holding potential by Qpatch assay
- Assay type: cell-based
Non-standard residues stand in square brackets, D forms with d. Residues, ends and D or L forms follow the SMILES beside them. 1Nal = N[C@@H](Cc1cccc2ccccc12)C(=O)O; 2Nal = N[C@@H](Cc1ccc2ccccc2c1)C(=O)O
# Lookup of reported Ratio AUC keyed by entry
// print number alone

CC[C@H](C)[C@H](NC(=O)[C@H](CCCCN)NC(=O)[C@@H](NC(=O)[C@@H](N)CCCNC(=N)N)[C@@H](C)CC)C(=O)NCC(=O)N[C@@H](CC(C)C)C(=O)N[C@@H](Cc1cccc2ccccc12)C(=O)N[C@@H](CC(=O)O)C(=O)N[C@@H](CCC(N)=O)C(=O)N[C@@H](CC(C)C)C(=O)N[C@@H](CO)C(=O)N[C@@H](CCCNC(=N)N)C(=O)N[C@@H](CC(C)C)C(N)=O (H-RIKIGL[1Nal]DQLSRL-NH2) ... 1.8

Q: Please give the measured Ratio AUC for this molecule: CC[C@H](C)[C@H](NC(=O)[C@H](CCCNC(=N)N)NC(=O)[C@@H](NC(=O)[C@@H](N)CCCNC(=N)N)[C@@H](C)CC)C(=O)NCC(=O)N[C@@H](CC(C)C)C(=O)N[C@@H](Cc1ccc2ccccc2c1)C(=O)N[C@@H](CC(=O)O)C(=O)N[C@@H](CCC(N)=O)C(=O)N[C@@H](CC(C)C)C(=O)N[C@@H](CC(C)C)C(=O)N[C@@H](CCCNC(=N)N)C(=O)N[C@@H](CC(C)C)C(N)=O (H-RIRIGL[2Nal]DQLLRL-NH2)
A: 5.2

Q: Item under review: CC[C@H](C)[C@H](NC(=O)[C@H](CCCCN)NC(=O)[C@H](CC(C)C)NC(=O)[C@@H](N)CCCNC(=N)N)C(=O)NCC(=O)N[C@@H](CC(C)C)C(=O)N[C@@H](Cc1ccccc1)C(=O)N[C@@H](CC(=O)O)C(=O)N[C@@H](CCC(N)=O)C(=O)N[C@@H](CC(C)C)C(=O)N[C@@H](CO)C(=O)N[C@@H](CCCNC(=N)N)C(=O)N[C@@H](CC(C)C)C(N)=O (H-RLKIGLFDQLSRL-NH2) . Reported Ratio AUC?
A: 1

Q: Would you mind telling me what Ratio AUC value was observed for CC[C@H](C)[C@H](NC(=O)[C@H](CCCCN)NC(=O)[C@@H](NC(=O)[C@@H](N)CCCNC(=N)N)[C@@H](C)CC)C(=O)NCC(=O)N[C@@H](CC(C)C)C(=O)N[C@@H](Cc1c[nH]c2ccccc12)C(=O)N[C@@H](CC(=O)O)C(=O)N[C@@H](CCC(N)=O)C(=O)N[C@@H](CC(C)C)C(=O)N[C@@H](CO)C(=O)N[C@@H](CCCNC(=N)N)C(=O)N[C@@H](CC(C)C)C(N)=O (H-RIKIGLWDQLSRL-NH2) ?
A: 0.9

Q: # input molecule: CC[C@H](C)[C@H](NC(=O)[C@H](CCCCN)NC(=O)[C@@H](NC(=O)[C@@H](N)CCCNC(=N)N)[C@@H](C)CC)C(=O)NCC(=O)N[C@@H](CC(C)C)C(=O)N[C@@H](Cc1ccc2ccccc2c1)C(=O)N[C@@H](CC(=O)O)C(=O)N[C@@H](CCC(N)=O)C(=O)N[C@@H](CC(C)C)C(=O)N[C@@H](CO)C(=O)N[C@@H](CCCNC(=N)N)C(=O)N[C@@H](CC(C)C)C(N)=O (H-RIKIGL[2Nal]DQLSRL-NH2) ; wanted: its Ratio AUC
A: 5

* * *

- Assayed target: Sodium channel protein type 1 subunit alpha (Homo sapiens) (UniProt P35498)
- Experimental protocol: Activation of human Nav1.1 expressed in HEK293 cells assessed as ratio of compound activation AUC to baseline activation AUC at 0.12 uM at -120 mV holding potential by Qpatch assay
- Assay type: cell-based
Positions of bridges follow the written chain, without caps; N, C: chain ends. Non-standard residues stand in square brackets, D forms with d. Residues, ends and D or L forms follow the SMILES beside them. Phe(4-Cl) = N[C@@H](Cc1ccc(Cl)cc1)C(=O)O; 1Nal = N[C@@H](Cc1cccc2ccccc12)C(=O)O
Recorded Ratio AUC values for a group of compounds are listed next.
Could you keep your reply to the number by itself?

CC[C@H](C)[C@H](NC(=O)[C@H](CCCCN)NC(=O)[C@@H](NC(=O)[C@@H](N)CCCNC(=N)N)[C@@H](C)CC)C(=O)NCC(=O)N[C@@H](CC(C)C)C(=O)N[C@@H](Cc1cccc2ccccc12)C(=O)N[C@@H](CC(=O)O)C(=O)N[C@@H](CCC(N)=O)C(=O)N[C@@H](CC(C)C)C(=O)N[C@@H](CO)C(=O)N[C@@H](CCCNC(=N)N)C(=O)N[C@@H](CC(C)C)C(N)=O (H-RIKIGL[1Nal]DQLSRL-NH2) ... 1

Q: For the compound shown here, CC[C@H](C)[C@H](NC(=O)[C@H](CCCCN)NC(=O)[C@@H](NC(=O)[C@@H](N)CCCNC(=N)N)[C@@H](C)CC)C(=O)NCC(=O)N[C@@H](CC(C)C)C(=O)N[C@@H](Cc1ccccc1)C(=O)N[C@@H](CC(=O)O)C(=O)N[C@@H](CCC(N)=O)C(=O)N[C@@H](CC(C)C)C(=O)N[C@@H](CO)C(=O)N[C@@H](CCCNC(=N)N)C(=O)N[C@@H](CC(C)C)C(N)=O (H-RIKIGLFDQLSRL-NH2) , give the reported Ratio AUC.
A: 1

Q: Reported Ratio AUC for CC[C@H](C)[C@H](NC(=O)[C@H](CCCNC(=N)N)NC(=O)[C@@H](NC(=O)[C@@H](N)CCCNC(=N)N)[C@@H](C)CC)C(=O)NCC(=O)N[C@@H](CC(C)C)C(=O)N[C@@H](Cc1ccccc1)C(=O)N[C@@H](CC(=O)O)C(=O)N[C@@H](CCC(N)=O)C(=O)N[C@@H](CC(C)C)C(=O)N[C@@H](Cc1ccc(Cl)cc1)C(=O)N[C@@H](CCCNC(=N)N)C(=O)N[C@@H](CC(C)C)C(N)=O (H-RIRIGLFDQL[Phe(4-Cl)]RL-NH2) : what is it?
A: 1.1

Q: For the compound shown here, CC[C@H](C)[C@@H]1NC(=O)[C@H](CCCCN)NC(=O)[C@H]([C@@H](C)CC)NC(=O)[C@@H](N)CSSC[C@@H](C(=O)N[C@@H](CCC(N)=O)C(=O)N[C@@H](CC(C)C)C(=O)N[C@@H](CO)C(=O)N[C@@H](CCCNC(=N)N)C(=O)N[C@@H](CC(C)C)C(N)=O)NC(=O)[C@H](Cc2ccccc2)NC(=O)[C@H](CC(C)C)NC(=O)CNC1=O (H-CIKIGLFCQLSRL-NH2; disulfide 1-8) , give the reported Ratio AUC.
A: 1
